I'd be grateful if you could share measured IC50 for these entries.
SUBJECT_OF_TEST: UniProt:Q99685
TEST_PROTOCOL: In vitro competitive substrate hydrolysis enzyme activity assay (pNPA), HEK293 cell lysates
Type: biochemical
Set-up: expressed in transfected cells; host or cells: HEK293
SETUP_CONDITIONS: HEK293 lysate
Please state the figure in µM; there is no need to write the unit.

Task item: // query IC50 value for entry O=C(OC(C(F)(F)F)C(F)(F)F)N1CCC2(CC1)CC2C(=O)N1CCn2cc(C(F)(F)F)nc2C1 (single isomer, unassigned) [Example 51]
Reply: 0.0232

Task item: What would you report for O=C(Nc1cncnc1)C1CC12CCN(C(=O)OC(C(F)(F)F)C(F)(F)F)CC2 (single isomer, unassigned) [Example 97] ?
Reply: 1.38

Task item: Would you kindly repeat that for O=C(OC(C(F)(F)F)C(F)(F)F)N1CCC2(CC1)CC2C(=O)N1CCc2cnc(C(F)(F)F)nc2C1 (single isomer, unassigned) [Example 57] ?
Reply: 0.00473

Task item: And for Cc1ncccc1NC(=O)C1CC12CCN(C(=O)OC(C(F)(F)F)C(F)(F)F)CC2 (single isomer, unassigned) [Example 69] ?
Reply: 0.0136

Task item: Input O=C(Nc1cnccn1)C1CC12CCN(C(=O)OC(C(F)(F)F)C(F)(F)F)CC2 (single isomer, unassigned) [Example 54]
Reply: 0.111

Task item: And then O=C(NCc1cccnc1)C1CC12CCN(C(=O)OC(C(F)(F)F)C(F)(F)F)CC2 (single isomer, unassigned) [Example 87] , what is it?
Reply: 0.463

---

Test system: cryopreserved human hepatocytes
TEST_PROTOCOL: In vitro human hepatocyte stability
Type: in vitro ADME
SETUP_CONDITIONS: human hepatocytes 0.5×10^6 cells/mL, 1 μM
Task for the reader: assign each of the following compounds its reported Scaled-up unbound CLint.
Provide only the numeric value, understood in mL/min/kg.

Task item: Would you mind telling me what Scaled-up unbound CLint value was observed for O=C(Nc1cncc(F)c1)C1CC12CCN(C(=O)OC(C(F)(F)F)C(F)(F)F)CC2 (single isomer, unassigned) [Example 40] ?
Reply: 43.25

Task item: // query: O=C(Nc1nccs1)C1CC12CCN(C(=O)OC(C(F)(F)F)C(F)(F)F)CC2 (single isomer, unassigned) [Example 138]
Reply: 40.48

Task item: Next entry: CP(C)(=O)c1ccc(NC(=O)C2CC23CCN(C(=O)OC(C(F)(F)F)C(F)(F)F)CC3)cn1 (single isomer, unassigned) [Example 20]
Reply: 0.85

Task item: Param item: CC1(CNC(=O)C2CC23CCN(C(=O)OC(C(F)(F)F)C(F)(F)F)CC3)CCOCC1 (single isomer, unassigned) [Example 168]
Reply: 61.36

Task item: Could you do the same for O=C(NCC1CCOCC1)[C@H]1CC12CCN(C(=O)OC(C(F)(F)F)C(F)(F)F)CC2 (single isomer, unassigned) [Example 117] , please?
Reply: 20.55

Task item: O=C(Nc1ccncc1)C1CC12CCN(C(=O)OC(C(F)(F)F)C(F)(F)F)CC2 (single isomer, unassigned) [Example 24] , same question.
Reply: 11.9

---

SUBJECT_OF_TEST: MAGL (Homo sapiens)
Sequence (Q99685 whole entry): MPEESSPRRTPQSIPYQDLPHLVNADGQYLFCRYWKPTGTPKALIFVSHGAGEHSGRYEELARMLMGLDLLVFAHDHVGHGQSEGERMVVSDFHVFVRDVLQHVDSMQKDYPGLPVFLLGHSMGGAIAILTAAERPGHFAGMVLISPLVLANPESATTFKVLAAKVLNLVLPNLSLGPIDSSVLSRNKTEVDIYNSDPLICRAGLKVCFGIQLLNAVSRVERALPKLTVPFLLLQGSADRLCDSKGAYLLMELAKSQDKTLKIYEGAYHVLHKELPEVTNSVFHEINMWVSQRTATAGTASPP
TEST_PROTOCOL: In vitro competitive activity-based protein profiling, PC3 human cell membrane proteomes
Format: biochemical
Set-up: endogenous in cells; host or cells: PC3 human cells (membrane proteome)
SETUP_CONDITIONS: human PC3 membrane proteome
QUANTITY_NAME: log10 of IC50 (log10 of the value in µM)
log10 IC50, µM

Task item: Fill in: log10 of IC50 of N#CC1CCN(C(=O)C2CC23CCN(C(=O)OC(C(F)(F)F)C(F)(F)F)CC3)CC1 (single isomer, unassigned) [Example 123] is ___
Reply: -0.80

Task item: Now the same for CN1CCC(NC(=O)C2CC23CCN(C(=O)OC(C(F)(F)F)C(F)(F)F)CC3)CC1 (single isomer, unassigned) [Example 115]
Reply: -0.25

Task item: Please do the same for Cc1cnc(NC(=O)C2CC23CCN(C(=O)OC(C(F)(F)F)C(F)(F)F)CC3)cn1 (single isomer, unassigned) [Example 112] as well.
Reply: -2.38

Task item: Try this compound next: CC1(NC(=O)C2CC23CCN(C(=O)OC(C(F)(F)F)C(F)(F)F)CC3)CCOCC1 (single isomer, unassigned) [Example 133]
Reply: 0.20

Task item: Can you handle O=C(NC(=O)C1CC12CCN(C(=O)OC(C(F)(F)F)C(F)(F)F)CC2)c1ccccc1 (single isomer, unassigned) next?
Reply: -2.29

Task item: Next entry: O=C(OC(C(F)(F)F)C(F)(F)F)N1CCC2(CC1)CC2C(=O)N1CCc2nc(C3CC3)ncc2C1 (single isomer, unassigned)
Reply: -2.15
